Biological target: T1, human Jagged1 (human, UniProt P78504 34-1218)
T1 construct: whole, on cells
T1 sequence (P78504 34-1218): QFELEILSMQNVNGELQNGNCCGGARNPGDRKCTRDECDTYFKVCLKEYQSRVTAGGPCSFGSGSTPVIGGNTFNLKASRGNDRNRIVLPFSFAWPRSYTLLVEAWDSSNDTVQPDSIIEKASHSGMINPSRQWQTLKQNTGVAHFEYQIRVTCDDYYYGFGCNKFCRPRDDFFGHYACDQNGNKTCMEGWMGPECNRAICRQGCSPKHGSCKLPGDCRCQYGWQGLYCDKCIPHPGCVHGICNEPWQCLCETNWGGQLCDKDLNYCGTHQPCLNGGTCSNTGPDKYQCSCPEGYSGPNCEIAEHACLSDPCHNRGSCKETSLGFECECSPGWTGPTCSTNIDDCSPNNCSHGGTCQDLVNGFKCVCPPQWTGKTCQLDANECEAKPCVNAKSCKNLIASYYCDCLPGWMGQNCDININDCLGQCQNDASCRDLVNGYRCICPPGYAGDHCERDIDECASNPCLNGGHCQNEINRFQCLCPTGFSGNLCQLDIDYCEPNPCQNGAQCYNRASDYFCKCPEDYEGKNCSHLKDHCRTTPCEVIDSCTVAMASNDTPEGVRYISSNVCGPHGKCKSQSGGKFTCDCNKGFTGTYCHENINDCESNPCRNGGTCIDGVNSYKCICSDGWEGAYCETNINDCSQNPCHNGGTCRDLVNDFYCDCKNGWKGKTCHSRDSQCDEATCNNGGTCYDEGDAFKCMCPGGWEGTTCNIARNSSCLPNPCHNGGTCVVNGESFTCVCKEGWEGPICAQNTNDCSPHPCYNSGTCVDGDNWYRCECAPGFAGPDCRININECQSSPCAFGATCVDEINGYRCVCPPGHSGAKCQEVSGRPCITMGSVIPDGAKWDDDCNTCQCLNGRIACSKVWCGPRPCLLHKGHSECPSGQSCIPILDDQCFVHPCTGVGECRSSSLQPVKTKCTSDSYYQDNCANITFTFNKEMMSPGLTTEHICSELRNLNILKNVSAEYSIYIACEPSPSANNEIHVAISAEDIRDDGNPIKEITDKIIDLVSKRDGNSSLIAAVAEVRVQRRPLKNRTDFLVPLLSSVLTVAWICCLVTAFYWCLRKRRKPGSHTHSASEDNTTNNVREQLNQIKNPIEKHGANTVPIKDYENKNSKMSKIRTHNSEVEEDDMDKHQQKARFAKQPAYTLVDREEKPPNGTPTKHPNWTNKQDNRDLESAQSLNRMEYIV
Assay: FMAT, hybridoma supernatant, 293T cells with human Jagged1
experimental.readout: Count
Just the number, please.

Q: Read the entry 21H3 (antibody, IgG4, V domains shown, Fully human; used for IgG4 rows and where no isotype is printed; also called 21H3 IgG4) VH: QVQLVQSGAEVKKPGASVKVSCKASGYTFTNYGITWVRQAPGQGPEWMGWISAYNGNTNYAQKLQDRVTVTTDTSTSTAYMELRSLRSDDTAVYYCARDRVPRIPVTTEAFDIWGQGTMVTVSS VL: QSVLTQPPSASGTPGQRVTISCSGSSSNIGSYFVYWYQQLPGTAPKLLIYRNNQRPSGVPDRFSGSESGTSASLAISGLRSEDEADYYCAAWDDSLSGHWVFGGGTRLTVL and write its reported Count.
A: 0

Q: Determine from records and report Count for 4B3 (antibody, IgG4, V domains shown, Fully human; also used where no isotype is printed) VH: QVQLVQSGAEVRKSGASVKVSCKASGYSFTTYDINWVRQATGQGLEWMGWMNPNSGYTDYAQKFQGRVTLTRNMSIDTAYMELSSLRSEDTAVYYCARAYYYDSSAYYLFDYWGQGTLVTVSS VL: DIQMTQSPSSLSASVGDRVTITCRASQGISNYLAWFQQKPGKAPKSLIYAASSLQSGVPSKFSGSGSGTDFTLTISSLQPEDFATYFCQQYISYPLTFGGGTKVEI
A: 2

Q: Give the reported value of Count for this record: 9G8 (antibody, IgG4, V domains shown, Fully human; used for IgG4 rows and where no isotype is printed; also called 9G8 IgG4) VH: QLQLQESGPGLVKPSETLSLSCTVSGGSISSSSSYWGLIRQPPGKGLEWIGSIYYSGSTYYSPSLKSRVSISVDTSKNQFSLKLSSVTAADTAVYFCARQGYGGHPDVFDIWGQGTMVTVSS VL: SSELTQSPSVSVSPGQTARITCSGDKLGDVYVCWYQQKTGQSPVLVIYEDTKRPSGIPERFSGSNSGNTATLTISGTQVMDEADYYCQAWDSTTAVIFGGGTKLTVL
A: 0

Q: Identify measured Count corresponding to 20G8 (antibody, IgG4, V domains shown, Fully human; also used where no isotype is printed) VH: QVQLVQSGAEVKKPGASVKVSCKASGYTFTSYGISWVRQAPGQGLEWMGWISVYNGNTNYAQKLQGRVTMTTDTSTSTAYMEVRSLRSDDTAVYYCARDRVPRIPRTTEAFDIWGRGTMVTVCS VL: QSVLTQPPSASGTPGQRVTISCSGSSSNIGSYYVYWYQQLPGTAPKLLIYRDNQRPSGVPDRFSGSKSGTSASLAIRGLRSDDEADYYCAAWDDSLSGHWVFGGGTKLTVL
A: 3

Q: Input 4B4 (antibody, IgG4, V domains shown, Fully human; used for IgG4 rows and where no isotype is printed; also called 4B4 IgG4; 4B4.1) VH: QVLLIQSGAEVKKPGASVQVSCKASGYTFTNYGVIWVRQAPGQGLEYMGWISAYNGNTNYAQKLQDRVTMTSDTSTTTAYMELRSLRSDDTAVYYCARELGSSFDYWGQGTLVTVSS VL: SYELTQPPSVSVSPGQTARITCSGDALPKKYAYWYQQKSGQAPVLVIYEDIKRPSGIPERFSGSSSGTMATLTISGAQVEDEADYYCFSTDNSGDHSVFGGGTKLTVL , output reported Count.
A: 2
